Biological target: 5-Lipoxygenase (Homo sapiens, UniProt P09917)
Construct: endogenous in cells; host or cells: human whole blood from male donors (results expressed per 10^6 neutrophils)
Sequence (P09917 whole entry): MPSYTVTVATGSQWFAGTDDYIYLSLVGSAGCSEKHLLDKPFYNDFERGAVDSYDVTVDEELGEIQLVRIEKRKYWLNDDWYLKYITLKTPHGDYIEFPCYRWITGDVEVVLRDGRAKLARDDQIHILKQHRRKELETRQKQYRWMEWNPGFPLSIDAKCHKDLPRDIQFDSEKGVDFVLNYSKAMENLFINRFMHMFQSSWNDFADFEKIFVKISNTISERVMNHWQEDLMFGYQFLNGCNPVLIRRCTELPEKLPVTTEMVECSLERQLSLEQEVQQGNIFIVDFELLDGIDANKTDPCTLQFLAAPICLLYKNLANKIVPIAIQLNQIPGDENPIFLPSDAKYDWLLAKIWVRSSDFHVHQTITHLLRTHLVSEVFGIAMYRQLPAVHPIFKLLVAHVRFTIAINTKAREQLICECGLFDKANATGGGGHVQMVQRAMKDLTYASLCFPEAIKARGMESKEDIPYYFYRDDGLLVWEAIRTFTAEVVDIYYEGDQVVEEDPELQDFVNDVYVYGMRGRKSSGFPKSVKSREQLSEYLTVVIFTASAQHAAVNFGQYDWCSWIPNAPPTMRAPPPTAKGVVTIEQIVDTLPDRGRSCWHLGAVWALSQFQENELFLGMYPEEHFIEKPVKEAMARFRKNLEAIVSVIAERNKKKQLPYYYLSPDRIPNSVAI
Test: Inhibition of 5-Lipoxygenase in Human Whole Blood (LTB4, calcium ionophore A23187)
Type: cell-based
Details: 1 μM
Protocol: 1. Inhibition of 5-Lipoxygenase in Human Whole Blood Blood is obtained in 50-100 ml quantities from male donors. White blood cell counts and differentials are made. Two ml of blood are placed in a 15 ml polypropylene test tube. […] The total eicosanoid level in 2 ml of blood is calculated and reported as ng/10^6 neutrophils. […] Drug effects are expressed as percent change from control values.
Output YES for inhibition at 1 µM not less than 70%; output NO otherwise.

Answered cases to consult:
>>> print(df.to_string())
                         chemical_structure  class_name
0  NC(=S)N(O)Cc1cccc(OCc2coc(-c3ccc(F)cc3)n2)c1          NO
1  Cc1oc(-c2ccc(Cl)cc2)nc1COc1cccc(CN(O)C(N)=O)c1         YES
2  Cc1oc(-c2cccc(C(F)(F)F)c2)nc1COc1cccc(CN(O)C(N)=O)c1          NO
3  Cc1oc(-c2ccc(F)cc2)nc1COc1cccc(CN(O)C(N)=O)c1         YES
4  NC(=O)N(O)Cc1cccc(OCc2csc(-c3ccccc3)n2)c1          NO
5  COc1ccc(-c2nc(COc3cccc(CN(O)C(N)=O)c3)cs2)cc1          NO
6  Cc1oc(-c2ccc(C(F)(F)F)cc2)nc1COc1cccc(CN(O)C(N)=O)c1          NO
7  NC(=O)N(O)Cc1cccc(OCc2coc(-c3ccc(F)cc3)n2)c1         YES

Then this compound:
Please check the record Cc1oc(-c2ccccc2)nc1COc1cccc(CN(O)C(N)=O)c1 and state if its inhibition at 1 µM is at or above 70%.
NO

* * *

Tested on: LTB4 Synthesis
Experiment: Reverse Passive Arthus Reaction (pleurisy), LTB4 in pleural exudate
Assay type: in vivo, rat (male Lewis)
Details: 10 mg/kg, p.o.
TEST_READOUT: % Inhibition LTB4 Synthesis

A selection of reference data follows.
                         chemical_structure                 test_readout  measured_value
0  Cc1oc(-c2ccc(C(F)(F)F)cc2)nc1COc1cccc(CN(O)C(N)=O)c1  % Inhibition LTB4 Synthesis             59%
1  Cc1oc(-c2ccccc2)nc1COc1cc(F)cc(CN(O)C(N)=O)c1  % Inhibition LTB4 Synthesis             17%

// map Cc1oc(-c2ccc(Cl)cc2)nc1COc1cccc(CN(O)C(N)=O)c1 to recorded % Inhibition LTB4 Synthesis (system: LTB4 Synthesis)
39%

Next molecule up: Cc1oc(-c2ccc(F)cc2)nc1COc1cccc(CN(O)C(N)=O)c1
27%

Next molecule up: NC(=O)N(O)Cc1cccc(OCc2csc(-c3ccccc3)n2)c1
43%

* * *

# key: entry, value: pIC50
System: low density lipoprotein (LDL)
Test: Inhibition of Copper Ion Mediated Oxidation of Low Density Lipoprotein
Format: biochemical
Conditions: Cu^+2 mediated oxidation of rabbit or monkey LDL; 37° C., 90 minutes; absorbance at 532 nm
pIC50 here is simply -log10 of the concentration when that concentration is written in mol/L.

A selection of reference data follows.
                         chemical_structure                   assay_target  test_readout  measured_value
0  NC(=O)N(O)Cc1cccc(OCc2csc(-c3ccc(Cl)cc3)n2)c1  low density lipoprotein (LDL)         pIC50            6.23
1  Cc1oc(-c2ccccc2)nc1COc1cccc(CN(O)C(N)=O)c1  low density lipoprotein (LDL)         pIC50            6.19

Continue with the next compound.
// query pIC50 value for entry Cc1oc(-c2ccc(F)cc2)nc1COc1cccc(CN(O)C(N)=O)c1
6.24

* * *

Molecular target: 5-Lipoxygenase (Homo sapiens, UniProt P09917)
Construct: endogenous in cells; host or cells: human whole blood from male donors (results expressed per 10^6 neutrophils)
Assay: Inhibition of 5-Lipoxygenase in Human Whole Blood (LTB4, calcium ionophore A23187)
Assay type: cell-based
Conditions: 10 μM
TEST_READOUT: inhibition at 10 µM
Show the value, then the unit it is measured in.

A selection of reference data follows.
                                   molecule         test_readout  measured_value
0  Cc1oc(-c2cc(C(F)(F)F)cc(C(F)(F)F)c2)nc1COc1cccc(CN(O)C(N)=O)c1  inhibition at 10 µM             57%
1  CC(/C=C/c1cccc(OCc2csc(-c3ccccc3)n2)c1)N(O)C(N)=O (stereo not drawn)  inhibition at 10 µM             47%
2  Cc1oc(-c2ccc(C(F)(F)F)cc2)nc1COc1cc(F)cc(CN(O)C(N)=O)c1  inhibition at 10 µM             85%
3  Cc1oc(-c2ccccc2)nc1COc1cccc(C(C)N(O)C(N)=O)c1 (stereo not drawn)  inhibition at 10 µM             80%

// query inhibition at 10 µM value for entry Cc1oc(-c2ccc(Cl)cc2)nc1COc1cccc(/C=C/C(C)N(O)C(N)=O)c1 (stereo not drawn)
57%

Next molecule up: Cc1oc(-c2ccccc2)nc1COc1cccc(CN(O)C(=O)N(C)O)c1
69%

* * *

Test system: LT-dependent bronchoconstriction
Test: Inhibition of Bronchoconstriction in Guinea Pigs Induced by Exogenously Administered Antigen
Format: in vivo, guinea pig (male)
Settings: Cavia porcellus, iv, 5 min; 10 mg/kg i.v.; 5 min post-antigen challenge
# key: entry, value: inhibition in vivo at 10 mg/kg
Write the value in % as a bare number.

A selection of reference data follows.
                         chemical_structure                      assay_target  measured_value
0  COc1ccc(-c2nc(COc3cccc(CN(O)C(N)=O)c3)cs2)cc1  LT-dependent bronchoconstriction              58
1  NC(=S)N(O)Cc1cccc(OCc2coc(-c3ccc(F)cc3)n2)c1  LT-dependent bronchoconstriction              53
2  Cc1oc(-c2ccccc2)nc1COc1cc(F)cc(CN(O)C(N)=O)c1  LT-dependent bronchoconstriction              29
3  Cc1oc(-c2ccc(Cl)cc2)nc1COc1cccc(CN(O)C(N)=O)c1  LT-dependent bronchoconstriction              41
4  Cc1oc(-c2ccc(F)cc2)nc1COc1cccc(CN(O)C(N)=O)c1  LT-dependent bronchoconstriction              65

// query inhibition in vivo at 10 mg/kg value for entry NC(=O)N(O)Cc1cccc(OCc2coc(-c3ccc(F)cc3)n2)c1
84

Next compound up: NC(=O)N(O)Cc1cccc(OCc2csc(-c3ccc(Cl)cc3)n2)c1
70
